I'd appreciate it if you could supply binding signal values for the items below.
Target: TAT-SF1 (Homo sapiens, UniProt O43719)
Sequence: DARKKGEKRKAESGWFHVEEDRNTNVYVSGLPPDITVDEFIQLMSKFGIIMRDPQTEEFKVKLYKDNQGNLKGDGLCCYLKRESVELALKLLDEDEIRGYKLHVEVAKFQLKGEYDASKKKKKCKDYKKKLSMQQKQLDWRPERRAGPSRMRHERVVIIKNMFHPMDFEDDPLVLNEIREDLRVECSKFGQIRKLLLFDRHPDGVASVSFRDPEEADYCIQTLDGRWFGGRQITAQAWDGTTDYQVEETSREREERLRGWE
Test: protein domain microarray probed with biotinylated miRNA; Domain array: 20 mM Tris-HCl pH 7.4, 200 mM KCl, 0.2 mM EDTA, 0.05% NP40, 2 ug/ul heparin, overnight 4 C. ORF array: PBS pH 7.0 with RNase inhibitor, 100 ng RNA; high values mean tight binding
Conditions: ssRNA

Known results for sequences:
| sequenceCode | measurementKind | observed |
| --- | --- | --- |
| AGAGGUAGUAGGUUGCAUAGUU | binding signal | 125 fluorescence intensity |
| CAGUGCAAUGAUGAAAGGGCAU | binding signal | 90 fluorescence intensity |

Please find the next sequence below.
IN: Please give measured binding signal of the following entry: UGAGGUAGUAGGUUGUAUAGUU
OUT: 33.2 fluorescence intensity
